Biological target: Adrenergic receptor alpha-1 (Rattus norvegicus, UniProt P15823+P23944+P43140)
Test: Displacement of [3H]prazosin from adrenergic alpha-1 receptor in rat cortical membranes at 1 uM
Assay type: cell membranes, Membrane
measure: % inhibition (%)
State the answer as a number, implicitly in %.

Task: # % inhibition lookup, item CCCN(CCCc1c[nH]c2ccc(F)cc12)C1COc2ccc3ncccc3c2C1 (racemic)
Result: 18

Task: # % inhibition lookup, item Fc1ccc2[nH]cc(CCCCNC3COc4c(ccc5ncccc45)C3)c2c1 (racemic)
Result: 33

Task: # % inhibition lookup, item CCCN(CCCCc1c[nH]c2ccc(F)cc12)C1COc2c(ccc3ncccc23)C1 (racemic)
Result: 19

Task: # % inhibition lookup, item CCCN(CCCc1c[nH]c2ccc(F)cc12)C1COc2ccc3ncccc3c2C1 (stereo in doubt; (-)-6)
Result: 31

Task: # % inhibition lookup, item CCCN(CCCc1c[nH]c2ccc(F)cc12)C1COc2ccc3ncccc3c2C1 (single isomer, unassigned; (+))
Result: 38

====

Task for the reader: assign each of the following compounds its reported Ki.
Target: Adrenergic receptor alpha-1 (Rattus norvegicus, UniProt P15823+P23944+P43140)
Test: Displacement of [3H]prazosin from adrenergic alpha-1 receptor in rat cortical membranes
Assay type: cell membranes, Membrane
State the answer as a number, implicitly in nM.

Task: # Ki lookup, item Fc1ccc2[nH]cc(CCCNC3COc4c(ccc5ncccc45)C3)c2c1 (racemic)
Result: 489.5

Task: # Ki lookup, item Fc1ccc2[nH]cc(CCCNC3COc4ccc5ncccc5c4C3)c2c1 (racemic)
Result: 324.2

Task: # Ki lookup, item Fc1ccc2[nH]cc(CCCNC3COc4c(ccc5ncccc45)C3)c2c1 (single isomer, unassigned; (+))
Result: 623.7

Task: # Ki lookup, item Fc1ccc2[nH]cc(CCCNC3COc4c(ccc5ncccc45)C3)c2c1 (single isomer, unassigned; (-))
Result: 387.7

Task: # Ki lookup, item Fc1ccc2[nH]cc(CCCNC3COc4ccc5ncccc5c4C3)c2c1 (single isomer, unassigned; (-))
Result: 221

Task: # Ki lookup, item CCCN(CCCc1c[nH]c2ccc(F)cc12)C1COc2c(ccc3ncccc23)C1 (racemic)
Result: 1234.3

Task: # Ki lookup, item COc1cccc2c1CC(NCCCc1c[nH]c3ccc(F)cc13)CO2 (racemic)
Result: 772.5

Task: # Ki lookup, item Fc1ccc2[nH]cc(CCCNC3COc4ccc5ncccc5c4C3)c2c1 (stereo in doubt; (+)-5)
Result: 590.8

Task: # Ki lookup, item Fc1ccc2[nH]cc(CCNC3COc4ccc5ncccc5c4C3)c2c1 (racemic)
Result: 1078.7

Task: # Ki lookup, item CCCN(CCc1c[nH]c2ccc(F)cc12)C1COc2ccc3ncccc3c2C1 (racemic)
Result: 711.2

====

Target: 5-hydroxytryptamine receptor 1A (Homo sapiens) (UniProt P08908)
Sequence (whole entry): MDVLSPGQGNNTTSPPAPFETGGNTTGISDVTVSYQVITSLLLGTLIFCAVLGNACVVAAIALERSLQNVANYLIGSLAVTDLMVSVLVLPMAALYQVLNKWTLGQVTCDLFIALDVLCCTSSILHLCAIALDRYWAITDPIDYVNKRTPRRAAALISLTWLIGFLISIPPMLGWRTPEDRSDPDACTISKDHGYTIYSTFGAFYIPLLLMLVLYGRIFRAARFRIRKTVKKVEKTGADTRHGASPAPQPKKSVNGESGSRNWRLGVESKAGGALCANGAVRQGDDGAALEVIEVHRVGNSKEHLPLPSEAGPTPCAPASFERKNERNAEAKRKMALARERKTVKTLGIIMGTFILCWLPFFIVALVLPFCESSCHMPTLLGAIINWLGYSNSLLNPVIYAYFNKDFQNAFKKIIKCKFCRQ
Assay: Agonist activity at human 5HT1A receptor expressed in CHO membrane assessed as stimulation of [35S]GTPgammaS binding relative to 5HT
Format: functional, cell membranes
Task for the reader: assign each of the following molecules its reported Emax.
Please provide the amount together with its unit, number first.

Task: Form: Entry = Fc1ccc2[nH]cc(CCCNC3COc4ccc5ncccc5c4C3)c2c1 (single isomer, unassigned; (-)) | System = 5-hydroxytryptamine receptor 1A (Homo sapiens) (UniProt P08908) | Emax = ____
Result: 86%

Task: Form: Entry = CCCN(CCCc1c[nH]c2ccc(F)cc12)C1COc2ccc3ncccc3c2C1 (single isomer, unassigned; (+)) | System = 5-hydroxytryptamine receptor 1A (Homo sapiens) (UniProt P08908) | Emax = ____
Result: 100%

Task: Form: Entry = Fc1ccc2[nH]cc(CCCNC3COc4c(ccc5ncccc45)C3)c2c1 (single isomer, unassigned; (+)) | System = 5-hydroxytryptamine receptor 1A (Homo sapiens) (UniProt P08908) | Emax = ____
Result: 75%

Task: Form: Entry = Fc1ccc2[nH]cc(CCCNC3COc4c(ccc5ncccc45)C3)c2c1 (single isomer, unassigned; (-)) | System = 5-hydroxytryptamine receptor 1A (Homo sapiens) (UniProt P08908) | Emax = ____
Result: 100%

Task: Form: Entry = Fc1ccc2[nH]cc(CCCNC3COc4ccc5ncccc5c4C3)c2c1 (stereo in doubt; (+)-5) | System = 5-hydroxytryptamine receptor 1A (Homo sapiens) (UniProt P08908) | Emax = ____
Result: 100%

Task: Form: Entry = CCCN(CCCc1c[nH]c2ccc(F)cc12)C1COc2ccc3ncccc3c2C1 (stereo in doubt; (-)-6) | System = 5-hydroxytryptamine receptor 1A (Homo sapiens) (UniProt P08908) | Emax = ____
Result: 55%

====

Task for the reader: assign each of the following molecules its reported log10 of Ki.
Target: Sodium-dependent serotonin transporter (Rattus norvegicus)
Sequence (P31652 whole entry): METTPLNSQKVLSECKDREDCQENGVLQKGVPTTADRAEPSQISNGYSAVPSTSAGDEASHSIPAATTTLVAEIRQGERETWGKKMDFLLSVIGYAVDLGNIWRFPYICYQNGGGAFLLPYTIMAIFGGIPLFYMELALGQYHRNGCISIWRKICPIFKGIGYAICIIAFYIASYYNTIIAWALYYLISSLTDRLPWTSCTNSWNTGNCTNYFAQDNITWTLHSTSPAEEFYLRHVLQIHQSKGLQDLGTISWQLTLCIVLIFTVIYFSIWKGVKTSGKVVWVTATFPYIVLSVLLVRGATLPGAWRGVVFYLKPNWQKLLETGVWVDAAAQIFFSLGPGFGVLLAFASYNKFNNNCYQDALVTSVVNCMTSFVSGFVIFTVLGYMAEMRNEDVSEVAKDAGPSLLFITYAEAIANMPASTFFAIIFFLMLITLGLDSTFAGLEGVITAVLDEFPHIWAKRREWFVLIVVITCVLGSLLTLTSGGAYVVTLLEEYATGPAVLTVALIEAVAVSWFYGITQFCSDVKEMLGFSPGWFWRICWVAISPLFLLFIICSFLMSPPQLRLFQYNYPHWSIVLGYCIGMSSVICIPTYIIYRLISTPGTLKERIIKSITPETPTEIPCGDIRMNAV
Assay: Displacement of [3H]paroxetine from 5HT reuptake site of rat cortical 5HTT
Scale: log10; quantity: Ki; unit before log: nM

Task: # log10 of Ki lookup, item CCCN(CCCc1c[nH]c2ccc(F)cc12)C1COc2ccc3ncccc3c2C1 (single isomer, unassigned; (+))
Result: 1.30

Task: # log10 of Ki lookup, item CCCN(CCCc1c[nH]c2ccc(F)cc12)C1COc2ccc3ncccc3c2C1 (racemic)
Result: 1.23

Task: # log10 of Ki lookup, item Fc1ccc2[nH]cc(CCCNC3COc4c(ccc5ncccc45)C3)c2c1 (single isomer, unassigned; (+))
Result: 0.48

Task: # log10 of Ki lookup, item Fc1ccc2[nH]cc(CCCNC3COc4c(ccc5ncccc45)C3)c2c1 (racemic)
Result: 0.41

Task: # log10 of Ki lookup, item CCCN(CCCc1c[nH]c2ccc(F)cc12)C1COc2c(ccc3ncccc23)C1 (racemic)
Result: 1.09

Task: # log10 of Ki lookup, item CCCN(CCc1c[nH]c2ccc(F)cc12)C1COc2ccc3ncccc3c2C1 (racemic)
Result: 1.80

Task: # log10 of Ki lookup, item CCCN(CCCc1c[nH]c2ccc(F)cc12)C1COc2ccc3ncccc3c2C1 (stereo in doubt; (-)-6)
Result: 0.94

Task: # log10 of Ki lookup, item Fc1ccc2[nH]cc(CCCNC3COc4c(ccc5ncccc45)C3)c2c1 (single isomer, unassigned; (-))
Result: 0.08
